EXPERIMENT_DESCRIPTION: AUC in Sprague-Dawley rat at 10 mg/kg, po
Type: ADME, organism-based
Set-up: dose 10 mg/kg, route oral
STUDY_CONDITIONS: plasma
PARAMETER_MEASURED: AUC
Include the unit after the number when you answer.

Measured AUC of `CCCCN(c1c(OC)nn2c(-c3c(OC)cc(COCC)cc3OC)csc12)C1CCOCC1` : 1240 ng·h/mL

###

System: Liver microsomes
EXPERIMENT_DESCRIPTION: Intrinsic clearance in human liver microsomes
Format: ADME, Microsome
# label = Met if intrinsic clearance >= 600 µL/min/mg else Not met

Q: intrinsic clearance >= 600 µL/min/mg for `CCCN(c1c(OC)nn2c(-c3c(OC)cc(COCC)cc3OC)csc12)C1CCOCC1` ?
Result: Not met

Q: intrinsic clearance >= 600 µL/min/mg for `COCc1cc(OC)c(-c2csc3c(N(CC4CC4)CC4(F)CCOCC4)c(OC)nn23)c(OC)c1` ?
Result: Not met

Q: intrinsic clearance >= 600 µL/min/mg for COCc1cc(OC)c(-c2csc3c(N(CC4CC4)CC4CCCOC4)c(OC)nn23)c(OC)c1 (centres undefined) ?
Result: Not met

Q: intrinsic clearance >= 600 µL/min/mg for `COCCN(CC1CC1)c1c(OC)nn2c(-c3c(OC)cc(COC)cc3OC)csc12` ?
Result: Met

Q: intrinsic clearance >= 600 µL/min/mg for `CCCN(c1c(OC)nn2c(-c3c(Cl)cc(COC)cc3OC)csc12)C1CCOCC1` ?
Result: Not met

Q: intrinsic clearance >= 600 µL/min/mg for COCc1cc(OC)c(-c2csc3c(N(CC4CC4)CC4CCCO4)c(OC)nn23)c(OC)c1 (centres undefined) ?
Result: Met

Q: intrinsic clearance >= 600 µL/min/mg for `COCc1cc(OC)c(-c2csc3c(N(CC4CC4)C4CCOCC4)c(OC)nn23)c(OC)c1` ?
Result: Not met

Q: intrinsic clearance >= 600 µL/min/mg for `COCc1cc(OC)c(-c2csc3c(N(CC(C)C)C4CCOCC4)c(OC)nn23)c(OC)c1` ?
Result: Not met

Q: intrinsic clearance >= 600 µL/min/mg for `COCc1cc(OC)c(-c2csc3c(N(CCC4CC4)C4CCOCC4)c(OC)nn23)c(OC)c1` ?
Result: Not met

Q: intrinsic clearance >= 600 µL/min/mg for COCc1cc(OC)c(-c2csc3c(N(CC4CC4)CC4CCOC4)c(OC)nn23)c(OC)c1 (centres undefined) ?
Result: Not met

Q: intrinsic clearance >= 600 µL/min/mg for `CCCN(c1c(OC)nn2c(-c3c(OC)cc(C#N)cc3OC)csc12)C1CCOCC1` ?
Result: Not met

Q: intrinsic clearance >= 600 µL/min/mg for `CCCCN(c1c(OC)nn2c(-c3c(OC)cc(COC)cc3OC)csc12)C1CCOCC1` ?
Result: Not met

Q: intrinsic clearance >= 600 µL/min/mg for `CCN(c1c(OC)nn2c(-c3c(OC)cc(COC)cc3OC)csc12)C1CCOCC1` ?
Result: Not met

Q: intrinsic clearance >= 600 µL/min/mg for `CCCCN(c1c(OC)nn2c(-c3c(OC)cc(C#N)cc3OC)csc12)C1CCOCC1` ?
Result: Not met

Q: intrinsic clearance >= 600 µL/min/mg for `CCCN(c1c(OC)nn2c(-c3c(OC)cc(COC)cc3OC)csc12)C1CCOCC1` ?
Result: Not met

Q: intrinsic clearance >= 600 µL/min/mg for `COCc1cc(OC)c(-c2csc3c(N(CC4CCOCC4)CC4CC4)c(OC)nn23)c(OC)c1` ?
Result: Not met

Q: intrinsic clearance >= 600 µL/min/mg for `COCc1cc(OC)c(-c2csc3c(N(C(C)C)C4CCOCC4)c(OC)nn23)c(OC)c1` ?
Result: Met

Q: intrinsic clearance >= 600 µL/min/mg for COCc1cc(OC)c(-c2csc3c(N(CC4CC4)CC4CCCCO4)c(OC)nn23)c(OC)c1 (centres undefined) ?
Result: Met

Q: intrinsic clearance >= 600 µL/min/mg for `CCCCN(c1c(OC)nn2c(-c3c(OC)cc(COCC)cc3OC)csc12)C1CCOCC1` ?
Result: Not met
